biological target: CAMK2D (human) (UniProt Q13557); test: radiometric filter-binding kinase assay, Kinase HotSpot; conditions: compound 0.5 µM; ATP 10 µM
Sequence (Q13557 whole entry, looked up): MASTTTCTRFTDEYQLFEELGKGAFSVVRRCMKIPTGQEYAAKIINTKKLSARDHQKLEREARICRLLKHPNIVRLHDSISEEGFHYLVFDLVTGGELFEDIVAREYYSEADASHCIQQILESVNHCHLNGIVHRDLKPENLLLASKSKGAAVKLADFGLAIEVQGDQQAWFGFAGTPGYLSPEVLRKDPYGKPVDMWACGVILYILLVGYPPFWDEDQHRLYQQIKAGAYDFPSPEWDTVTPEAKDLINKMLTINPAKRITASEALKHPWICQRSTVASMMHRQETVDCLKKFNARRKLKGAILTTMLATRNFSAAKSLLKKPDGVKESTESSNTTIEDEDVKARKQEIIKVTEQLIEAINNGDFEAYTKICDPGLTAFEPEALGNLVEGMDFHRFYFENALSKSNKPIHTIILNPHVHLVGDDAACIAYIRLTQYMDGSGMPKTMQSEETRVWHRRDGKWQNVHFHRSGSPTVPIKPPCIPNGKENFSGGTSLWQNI
Listed here: items and their measured residual activity.
quantity_kind: residual activity (%)

compound	observed_measurement
CNC(=O)c1cc(Oc2ccc(NC(=O)Nc3ccc(Cl)c(C(F)(F)F)c3)cc2)ccn1	102
CO[C@H]1CC2CC[C@@H](C)[C@@](O)(O2)C(=O)C(=O)N2CCCC[C@H]2C(=O)OC([C@H](C)C[C@@H]2CC[C@@H](O)[C@H](OC)C2)CC(=O)[C@H](C)/C=C(\C)[C@@H](O)[C@@H](OC)C(=O)[C@H](C)C[C@H](C)/C=C/C=C/C=C/1C (some centres undefined)	96.1
Cc1ccc(S(=O)(=O)/C=C/C#N)cc1	102
CCC(=O)Nc1ccc2ncnc(Nc3cccc(Br)c3)c2c1	113
CC(C)N(CCC(=O)c1ccc2ccccc2c1)Cc1ccccc1	90
Nc1ccc2ncnc(NCCc3ccc(Oc4ccccc4)cc3)c2c1	98.9
CCN(CC)CCNC(=O)c1c(C)[nH]c(/C=C2\C(=O)Nc3ccc(Cl)cc32)c1C	7.25
COc1ccc2c(c[n+](C)c3c4cc5c(cc4ccc23)OCO5)c1OC	90.4
O=c1cc(N2CCOCC2)oc2c1ccc1ccccc12	99.9
